ASSAY TARGET: cathepsin D isolated from the human liver (Homo sapiens (Human), UniProt P07339)
Sequence (P07339 65-161): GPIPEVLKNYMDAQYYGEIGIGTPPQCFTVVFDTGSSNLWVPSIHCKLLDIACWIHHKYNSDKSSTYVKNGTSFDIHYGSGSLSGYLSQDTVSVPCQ
Sequence (P07339 169-412): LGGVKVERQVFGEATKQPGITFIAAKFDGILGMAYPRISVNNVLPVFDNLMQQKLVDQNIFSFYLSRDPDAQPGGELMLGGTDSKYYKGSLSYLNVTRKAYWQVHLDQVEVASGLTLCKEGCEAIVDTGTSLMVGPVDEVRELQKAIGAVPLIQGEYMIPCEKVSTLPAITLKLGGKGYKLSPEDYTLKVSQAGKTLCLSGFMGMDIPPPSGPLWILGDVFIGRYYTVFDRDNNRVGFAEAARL
MEASUREMENT PROTOCOL: In-vitro fluorescence assay for identification of cathepsin D inhibitors
TEST PARAMETERS: cathepsin D 1.4 nM, pH 5.5; read-out: CatD assay IC50-
Numbered stars: 1 amine (or outer) side, 2 acyl side, 3 side chain; on linkers, the order of the positions; unused ones are H or OH. Square brackets hold non-standard residues; d marks the D form. Peptide text beside a SMILES is read from it. * marks the point of attachment. X1 = N[C@@H](CC(=O)[*:2])[C@H](Cc1ccccc1)N[*:1]; Isovaleryl = CC(C)CC(=O)*; Boc = CC(C)(C)OC(=O)*

| COMPOUND | IC50 (nM) |
| --- | --- |
| CC[C@H](C)[C@H](NC(=O)C[C@H](N)[C@H](Cc1ccccc1)NC(=O)[C@@H](NC(=O)Cc1cccc(OC(F)(F)F)c1)C(C)C)C(=O)NCCC(C)C [Compound 36] | 28 |
| CC(C)CCNC(=O)[C@H](C)NC(=O)C[C@H](N)[C@H](Cc1ccccc1)NC(=O)[C@@H](NC(=O)Cc1cccc(OC(F)(F)F)c1)C(C)C [Compound 35] | 190 |
| CC[C@H](C)[C@H](NC(=O)C[C@H](N)[C@H](Cc1ccccc1)NC(=O)[C@H](Cc1ccccc1)NC(=O)[C@H](CC(C)C)NC(=O)CC(C)C)C(=O)N[C@H](C(=O)OC)C(C)C [Compound 11] (Isovaleryl-LF[X1]IV-OMe) | 610 |
| CCc1cccc(CC)c1NC(=O)C[C@H](N)[C@H](Cc1ccccc1)NC(=O)[C@@H](NC(=O)CCCc1ccccc1)C(C)C [Compound 40] | 800 |
| CC[C@H](NC(=O)[C@H](CC(C)C)NC(=O)CC(C)C)C(=O)N[C@@H](Cc1ccccc1)[C@@H](N)CC(=O)NCCc1ccc2c(c1)OCO2 [Compound 5] | 1800 |
| CC[C@H](C)[C@H](NC(=O)C[C@H](N)[C@H](Cc1ccccc1)NC(=O)[C@@H](NC(=O)[C@H](CC(C)C)NC(=O)CC(C)C)C(C)C)C(=O)N[C@H](C(=O)OC)C(C)C [Compound 10] (Isovaleryl-LV[X1]IV-OMe) | 5.1 |
| CC[C@H](C)[C@H](NC(=O)C[C@H](N)[C@H](Cc1ccccc1)NC(=O)[C@@H](NC(=O)[C@H](Cc1ccccc1)NC(=O)OC(C)(C)C)C(C)C)C(=O)N[C@H](C(=O)OC)C(C)C [Compound 20] (Boc-FV[X1]IV-OMe) | 1 |
| CC[C@H](C)[C@H](NC(=O)C[C@H](N)[C@H](Cc1ccccc1)NC(=O)[C@@H](NC(=O)[C@H](CC(C)C)NC(=O)CC(C)C)C(C)C)C(=O)Nc1cccnc1 [Compound 25] | 520 |
| COC(=O)[C@@H](NC(=O)[C@H](Cc1ccccc1)NC(=O)C[C@H](N)[C@H](Cc1ccccc1)NC(=O)[C@@H](NC(=O)[C@H](CC(C)C)NC(=O)CC(C)C)C(C)C)C(C)C [Compound 15] (Isovaleryl-LV[X1]FV-OMe) | 5.7 |
| CC[C@H](C)[C@H](NC(=O)C[C@H](N)[C@H](Cc1ccccc1)NC(=O)[C@@H](NC(=O)[C@H](CC(C)C)NC(=O)CC(C)C)C(C)C)C(=O)N[C@H](C(=O)OC)[C@@H](C)CC [Compound 13] (Isovaleryl-LV[X1]II-OMe) | 47 |

----------
ASSAY TARGET: cathepsin D isolated from the human liver (Homo sapiens (Human), UniProt P07339)
MEASUREMENT PROTOCOL: In-vitro fluorescence assay for identification of cathepsin D inhibitors
TEST PARAMETERS: cathepsin D 1.4 nM, pH 5.5; read-out: CatD assay IC50-
pIC50: −log10 of the molar value. Numbered stars: 1 amine (or outer) side, 2 acyl side, 3 side chain; on linkers, the order of the positions; unused ones are H or OH. Square brackets hold non-standard residues; d marks the D form. Peptide text beside a SMILES is read from it. * marks the point of attachment. X1 = N[C@@H](CC(=O)[*:2])[C@H](Cc1ccccc1)N[*:1]; 1Nal = N[C@@H](Cc1cccc2ccccc12)C(=O)O; Tle = CC(C)(C)[C@H](N)C(=O)O; Isovaleryl = CC(C)CC(=O)*

| COMPOUND | pIC50 |
| --- | --- |
| CC[C@H](C)[C@H](NC(=O)C[C@H](N)[C@H](Cc1ccccc1)NC(=O)[C@@H](NC(=O)[C@H](CC(C)C)NC(=O)CC(C)C)C(C)C)C(=O)NCc1ccccc1 | 6.74 |
| CC[C@H](C)[C@H](NC(=O)C[C@H](N)[C@H](Cc1ccccc1)NC(=O)[C@@H](NC(=O)[C@H](CC(C)C)NC(=O)CC(C)C)C(C)(C)C)C(=O)N[C@H](C(=O)OC)C(C)C [Compound 31] (Isovaleryl-L[Tle][X1]IV-OMe) | 6.92 |
| CC[C@H](C)[C@H](NC(=O)C[C@H](N)[C@H](Cc1ccccc1)NC(=O)[C@@H](NC(=O)[C@H](CC(C)C)NC(=O)CC(C)C)C(C)C)C(=O)N[C@H](C(=O)O)C(C)C [Compound 23] (Isovaleryl-LV[X1]IV-OH) | 7.30 |
| COC(=O)[C@@H](NC(=O)[C@H](Cc1cccc2ccccc12)NC(=O)C[C@H](N)[C@H](Cc1ccccc1)NC(=O)[C@@H](NC(=O)[C@H](CC(C)C)NC(=O)CC(C)C)C(C)C)C(C)C [Compound 28] (Isovaleryl-LV[X1][1Nal]V-OMe) | 8.43 |

----------
This section presents compounds with their documented IC50 values.
ASSAY TARGET: cathepsin D isolated from the human liver (Homo sapiens (Human))
MEASUREMENT PROTOCOL: In-vitro fluorescence assay for identification of cathepsin D inhibitors
TEST PARAMETERS: cathepsin D 1.4 nM, pH 5.5; read-out: CatD assay IC50-
Numbered stars: 1 amine (or outer) side, 2 acyl side, 3 side chain; on linkers, the order of the positions; unused ones are H or OH. Square brackets hold non-standard residues; d marks the D form. Peptide text beside a SMILES is read from it. * marks the point of attachment. X1 = N[C@@H](CC(=O)[*:2])[C@H](Cc1ccccc1)N[*:1]; Isovaleryl = CC(C)CC(=O)*; Ac3c = NC1(C(=O)O)CC1; Boc = CC(C)(C)OC(=O)*

| COMPOUND | IC50 |
| --- | --- |
| CC[C@H](C)[C@H](NC(=O)C[C@H](N)[C@H](Cc1ccccc1)NC(=O)[C@@H](NC(=O)[C@H](CC(C)C)NC(=O)OC(C)(C)C)C(C)C)C(=O)N[C@H](C(=O)OC)C(C)C [Compound 16] (Boc-LV[X1]IV-OMe) | 36 nM |
| CCOC(=O)C1(NC(=O)[C@@H](NC(=O)C[C@H](N)[C@H](Cc2ccccc2)NC(=O)[C@@H](NC(=O)[C@H](CC(C)C)NC(=O)CC(C)C)C(C)C)[C@@H](C)CC)CC1 [Compound 12] (Isovaleryl-LV[X1]I[Ac3c]-OEt) | 110 nM |
| CC[C@H](C)[C@H](NC(=O)C[C@H](N)[C@H](Cc1ccccc1)NC(=O)[C@@H](NC(=O)Cc1cccc(OC(F)(F)F)c1)C(C)C)C(=O)N[C@H](C(=O)O)C(C)C | 12 nM |
| CCC(CC)NC(=O)[C@@H](NC(=O)C[C@H](N)[C@H](Cc1ccccc1)NC(=O)[C@@H](NC(=O)[C@H](CC(C)C)NC(=O)CC(C)C)C(C)C)[C@@H](C)CC | 9.9 nM |

----------
ASSAY TARGET: cathepsin D isolated from the human liver (Homo sapiens (Human), UniProt P07339)
MEASUREMENT PROTOCOL: In-vitro fluorescence assay for identification of cathepsin D inhibitors
Format: biochemical
TEST PARAMETERS: cathepsin D 1.4 nM, pH 5.5; read-out: CatD assay IC50-
Numbered stars: 1 amine (or outer) side, 2 acyl side, 3 side chain; on linkers, the order of the positions; unused ones are H or OH. Square brackets hold non-standard residues; d marks the D form. Peptide text beside a SMILES is read from it. * marks the point of attachment. X1 = N[C@@H](CC(=O)[*:2])[C@H](Cc1ccccc1)N[*:1]; Abu = CC[C@H](N)C(=O)O; Boc = CC(C)(C)OC(=O)*
Each record is given True if its reported IC50 is strictly below 0.05 µM. Records at or above 0.05 µM are given False.

| MOLECULE | CLASSIFICATION |
| --- | --- |
| CC[C@H](NC(=O)[C@@H](N)CC(C)C)C(=O)N[C@@H](Cc1ccccc1)[C@@H](N)CC(=O)N[C@H](C(=O)N[C@H](C(=O)OC)C(C)C)[C@@H](C)CC [Compound 2] (H-L[Abu][X1]IV-OMe) | False |
| CC[C@H](C)[C@H](NC(=O)C[C@H](N)[C@H](Cc1ccccc1)NC(=O)[C@@H](NC(=O)Cc1cccc(NS(C)(=O)=O)c1)C(C)C)C(=O)N[C@H](C(=O)OC)C(C)C | False |
| CCc1cccc(CC)c1NC(=O)C[C@H](N)[C@H](Cc1ccccc1)NC(=O)[C@@H](NC(=O)[C@H](CC(C)C)NC(=O)CC(C)C)C(C)C | False |
| CC[C@H](NC(=O)[C@H](CC(C)C)NC(=O)OC(C)(C)C)C(=O)N[C@@H](Cc1ccccc1)[C@@H](N)CC(=O)N[C@H](C(=O)N[C@H](C(=O)OC)C(C)C)[C@@H](C)CC [Compound 1] (Boc-L[Abu][X1]IV-OMe) | True |
| CC[C@H](C)[C@H](NC(=O)C[C@H](N)[C@H](Cc1ccccc1)NC(=O)[C@@H](NC(=O)COc1cccc2ccccc12)C(C)C)C(=O)N[C@H](C(=O)OC)C(C)C | False |
| CC[C@H](C)[C@H](NC(=O)C[C@H](N)[C@H](Cc1ccccc1)NC(=O)[C@@H](NC(=O)[C@@H](N)Cc1ccccc1)C(C)C)C(=O)N[C@H](C(=O)OC)C(C)C [Compound 21] (H-FV[X1]IV-OMe) | False |
| CC[C@H](C)[C@H](NC(=O)C[C@H](N)[C@H](Cc1ccccc1)NC(=O)[C@@H](NC(=O)Cc1cccc(OC(F)(F)F)c1)[C@@H](C)CC)C(=O)N[C@H](C(=O)O)C(C)C | True |
| CC[C@H](C)[C@H](NC(=O)C[C@H](N)[C@H](Cc1ccccc1)NC(=O)[C@@H](NC(=O)COc1ccc(Cl)cc1Cl)C(C)C)C(=O)N[C@H](C(=O)OC)C(C)C | True |
| CC[C@H](C)[C@H](NC(=O)C[C@H](N)[C@H](Cc1ccccc1)NC(=O)[C@H](CC(C)C)NC(=O)CC(C)C)C(=O)N[C@H](C(=O)OC)C(C)C | False |
| CC[C@H](C)[C@H](NC(=O)C[C@H](N)[C@H](Cc1ccccc1)NC(=O)[C@@H](NC(=O)[C@H](CC(C)C)NC(=O)CC(C)C)C(C)C)C(=O)Nc1ccn(C)n1 | True |
